tested_system: Neuronal acetylcholine receptor; alpha4/beta2 (Homo sapiens, UniProt P17787+P43681)
assay_info: Intrinsic activity at human alpha4beta2 nAChR expressed in HEK293 cells assessed as intracellular calcium level by FLIPR assay relative to (-)nicotine
Format: cell-based
// thresholds for Efficacy classes: bin 1 = under 70%, bin 2 = from 70% up to 90%, bin 3 = 90% and over

These solved cases illustrate the format of a correct answer.
In [3]: df
Out[3]:
                                   molecule  assigned_category
0                    Clc1cncc(N2CCCNCCC2)c1              bin 3
1                   C=COc1cncc(N2CCCNCC2)c1              bin 1
2  COc1cncc(C2=CC3CCCC(C2)N3)c1 (stereo not given)              bin 1

**Q:** Which of the defined bands does the recorded Efficacy of "COc1cncc(N2CCCNCC2)c1" sit within?
**A:** bin 1

###

The following molecules are shown together with reported Efficacy values.
tested_system: Neuronal acetylcholine receptor; alpha4/beta2 (Homo sapiens, UniProt P17787+P43681)
assay_info: Intrinsic activity at human alpha4beta2 nAChR expressed in HEK293 cells assessed as intracellular calcium level by FLIPR assay relative to (-)nicotine
Assay type: cell-based
Supply the numeric figure in %, leaving out any unit text.

>>> df
                   molecule  observation_type  readout_units  value_measured
0  COCCOc1cncc(N2CCCNCC2)c1          Efficacy              %              42

**Q:** Report measured Efficacy; entry is "Clc1ncc(N2CCCNCC2)cc1Br"
**A:** 85

**Q:** Report measured Efficacy; entry is Clc1cncc(OC2CCCNC2)c1 (centres undefined)
**A:** 15

**Q:** Report measured Efficacy; entry is "CCSc1ccc(N2CCCNCC2)cn1"
**A:** 53

###

tested_system: Neuronal acetylcholine receptor; alpha4/beta2 (Homo sapiens, UniProt P17787+P43681)
assay_info: Intrinsic activity at human alpha4beta2 nAChR expressed in HEK293 cells assessed as intracellular calcium level by FLIPR assay relative to (-)nicotine
Assay type: cell-based
observation_type: Efficacy (%)
Supply the numeric figure in %, leaving out any unit text.

Some compounds with known Efficacy results, for comparison:
>>> print(df.to_string())
                                   compound  value_measured
0                     COc1ccc(N2CCCNCC2)cn1              88
1                  CCOc1cc(N2CCCNCC2)cnc1Br              78
2                    C=COc1cncc(N2CCNCC2)c1              18
3  c1cncc(OC2CCCNC2)c1 (stereo unspecified)              22
4                       c1cncc(N2CCCNCC2)c1              94

**Q:** Report measured Efficacy; entry is "COc1cncc(N2CCCNCCC2)c1"
**A:** 89

**Q:** Report measured Efficacy; entry is "Cc1ncc(N2CCNCC2)cc1Cl"
**A:** 74

**Q:** Report measured Efficacy; entry is "COc1cc(N2CCCNCC2)cnc1Cl"
**A:** 116

**Q:** Report measured Efficacy; entry is "Brc1ccc(N2CCNCC2)cn1"
**A:** 129

**Q:** Report measured Efficacy; entry is "C=COc1cc(N2CCCNCC2)cnc1Br"
**A:** 80

**Q:** Report measured Efficacy; entry is "Clc1cc(N2CCCNCC2)cnc1Br"
**A:** 102
